assayed target: Dopamine beta hydroxylase (Homo sapiens, UniProt P09172)
Construct: 125 μl of plasma; tissue Instituto Português do Sangue Transplantação; host or cells: human plasma from healthy donors
Sequence (P09172 40-617 limits assumed): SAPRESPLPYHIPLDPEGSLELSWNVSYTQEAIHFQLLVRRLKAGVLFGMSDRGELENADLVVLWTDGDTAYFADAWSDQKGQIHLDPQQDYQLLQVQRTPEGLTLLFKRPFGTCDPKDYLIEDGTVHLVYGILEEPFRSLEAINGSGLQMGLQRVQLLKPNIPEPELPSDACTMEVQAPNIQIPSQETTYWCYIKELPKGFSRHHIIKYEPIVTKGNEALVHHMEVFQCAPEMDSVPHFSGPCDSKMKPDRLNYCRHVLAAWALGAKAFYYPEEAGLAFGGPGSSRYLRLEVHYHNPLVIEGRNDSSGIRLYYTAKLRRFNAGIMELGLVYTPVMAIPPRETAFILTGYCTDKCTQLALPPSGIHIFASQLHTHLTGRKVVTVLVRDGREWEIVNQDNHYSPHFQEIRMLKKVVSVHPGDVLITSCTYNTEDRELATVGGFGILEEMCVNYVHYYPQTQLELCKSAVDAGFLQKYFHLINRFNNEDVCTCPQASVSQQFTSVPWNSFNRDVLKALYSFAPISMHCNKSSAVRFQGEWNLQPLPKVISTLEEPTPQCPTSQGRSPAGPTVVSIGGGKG
experiment notes: Dopamine beta hydroxylase activity in human plasma
Format: biochemical
particulars: inhibitor 0.1 μM
In this section, each of the compounds is paired with its reported Plasma (0.1 μM), activity in % of control.
assay endpoint: Plasma (0.1 μM), activity in % of control

[
  {
    "compound": "CS(=O)(=O)C1CCN(CCc2[nH]c(=S)n3c2C[C@H](c2c(F)ccc(Br)c2F)C3)CC1",
    "result": "48.8 % of control"
  },
  {
    "compound": "O=C(Cc1[nH]c(=S)n2c1C[C@@H](c1c(F)ccc(Cl)c1F)C2)N1CCC(F)(F)CC1",
    "result": "36.7 % of control"
  },
  {
    "compound": "O=C(O)Cc1[nH]c(=S)n2c1C[C@H](c1c(F)c(F)cc(F)c1F)C2",
    "result": "66.0 % of control"
  },
  {
    "compound": "CN(C(=O)Cc1c2n(c(=S)n1C)C[C@@]1(c3cc(Cl)ccc3F)C[C@@H]21)C1COC1",
    "result": "10.1 % of control"
  },
  {
    "compound": "O=C(Cc1[nH]c(=S)n2c1C[C@H](c1c(F)c(F)cc(F)c1F)C2)N1CCC2(CC1)OCCO2",
    "result": "62.8 % of control"
  },
  {
    "compound": "CN(C(=O)Cc1[nH]c(=S)n2c1C[C@@H](c1c(F)ccc(Cl)c1F)C2)C1CCOC1 (some centres unmarked)",
    "result": "43.4 % of control"
  },
  {
    "compound": "F.Fc1ccc(Br)cc1[C@]12C[C@H]1c1c(CCN3CCOCC3)[nH]c(=S)n1C2",
    "result": "26.0 % of control"
  },
  {
    "compound": "O=C(Cc1[nH]c(=S)n2c1C[C@@H](c1c(F)ccc(Cl)c1F)C2)N[C@@H]1CCCOC1",
    "result": "35.2 % of control"
  }
]
